Give measured half-life at 5 µM for each item. Keep answers brief.
- ASSAY COMMENT: In vitro stability in human whole blood
- Assay type: in vitro ADME
- REPORTED CONDITIONS: male, whole blood diluted to 50% with PBS, pH 7.4, human whole blood diluted to 50% with PBS, 5 μM, 37° C., 240-minute incubation, read-out: Compound Half-life

Asked: Please report the recorded half-life at 5 µM for `Cc1cccc2cccc(N3CCc4c(nc(OC[C@@H]5CCCN5C)nc4N4CCN(C(=O)/C=C/CN5CC(F)C5)[C@@H](CC#N)C4)C3)c12` .
Given back: > 33.3 h

Asked: Please report the recorded half-life at 5 µM for `C=C(F)C(=O)N1CCN(c2nc(OC[C@H]3CCCN3C)nc3c2CCN(c2cccc4cccc(C)c24)C3)C[C@@H]1CC#N` .
Given back: > 33.3 h

Asked: Please report the recorded half-life at 5 µM for `CN1CCC[C@H]1COc1nc2c(c(N3CCN(C(=O)/C=C/CO)[C@@H](CC#N)C3)n1)CCN(c1cccc3cccc(Cl)c13)C2` .
Given back: 16.7 to 33.3 h

Asked: Please report the recorded half-life at 5 µM for `CN1CCC[C@H]1COc1nc2c(c(N3CCN(C(=O)/C=C/C(F)(F)F)[C@@H](CC#N)C3)n1)CCN(c1cccc3cccc(Cl)c13)C2` .
Given back: ≤ 3.33 h

Asked: Please report the recorded half-life at 5 µM for `C=C(COC)C(=O)N1CCN(c2nc(OC[C@@H]3CCCN3C)nc3c2CCN(c2cccc4cccc(Cl)c24)C3)C[C@@H]1CC#N` .
Given back: > 33.3 h

Asked: Please report the recorded half-life at 5 µM for `C=C(OC)C(=O)N1CCN(c2nc(OC[C@@H]3CCCN3C)nc3c2CCN(c2cccc4cccc(C)c24)C3)C[C@@H]1CC#N` .
Given back: > 33.3 h

Asked: Please report the recorded half-life at 5 µM for `C/C=C/C(=O)N1CCN(c2nc(OC[C@@H]3CCCN3C)nc3c2CCN(c2cccc4cccc(C)c24)C3)C[C@@H]1CC#N` .
Given back: > 33.3 h

Asked: Please report the recorded half-life at 5 µM for `COC/C=C/C(=O)N1CCN(c2nc(OC[C@H]3C[C@@H](OC)CN3C)nc3c2CCN(c2cccc4cccc(C)c24)C3)C[C@@H]1CC#N` .
Given back: > 33.3 h

----------
- SYSTEM NAME: KRas G12C (Homo sapiens, UniProt P01116, G12C)
- Sequence (P01116 1-188 isoform P01116-2 G12C): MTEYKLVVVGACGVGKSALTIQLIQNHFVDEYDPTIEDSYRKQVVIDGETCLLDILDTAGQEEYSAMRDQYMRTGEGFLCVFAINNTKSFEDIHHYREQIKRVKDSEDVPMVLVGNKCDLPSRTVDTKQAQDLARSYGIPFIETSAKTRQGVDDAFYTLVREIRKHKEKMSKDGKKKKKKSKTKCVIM
- ASSAY COMMENT: Cellular inhibition of KRas G12C measured by Phospho-ERK in NCI-H358 cells
- Type: cell-based
- REPORTED CONDITIONS: pERK(Thr202/Tyr204) normalized with GAPDH, NCI-H358 cells, 3 hours; read-out: IC50
Where a name gives a salt, the structure may show the parent alone.
VALUE TYPE: IC50

Asked: Please report the recorded IC50 for C=CC(=O)N1CCN(c2nc(OC[C@@H]3CCCN3C)nc3c2CCN(c2cccc(Cl)c2C)C3)C[C@@H]1CC#N [Example 420] .
Given back: 0.0001 to 1 µM

Asked: Please report the recorded IC50 for C=CC(=O)N1CCN(c2nc(OC[C@@H]3CCCN3C)nc3c2CCN(c2c(C(F)(F)F)ccc4[nH]ncc24)C3)CC1 [Example 156] .
Given back: 0.0001 to 1 µM

Asked: Please report the recorded IC50 for C=CC(=O)N1CCN(c2nc(OC[C@@H]3CCC(C)(C)N3C)nc3c2CCN(c2cccc4ccccc24)C3)CC1CC#N (some centres unmarked) [Example 301] .
Given back: 0.0001 to 1 µM

Asked: Please report the recorded IC50 for C=CC(=O)N1CCN(c2nc(OC[C@@H]3CCCN3C)nc3c2CCN(c2cccc4cccc(Br)c24)C3)C[C@@H]1CC#N [Example 464] .
Given back: 0.0001 to 1 µM

Asked: Please report the recorded IC50 for C=CC(=O)N1CCN(c2nc(OCCCN3CCCCC3)nc3c2CCN(c2cc(O)cc4ccccc24)C3)CC1 [Example 38] .
Given back: 0.0001 to 1 µM

Asked: Please report the recorded IC50 for C=CC(=O)N1CCN(c2nc(OC[C@@H]3CCCN3C)nc3c2CCN(c2c(C)c(O)cc4ccccc24)C3)CC1 [Example 175] .
Given back: 0.0001 to 1 µM

Asked: Please report the recorded IC50 for C=C(F)C(=O)N1CCN(c2nc(OC[C@H]3CCCN3C)nc3c2CCN(c2cccc4cccc(C)c24)C3)C[C@@H]1CC#N [Example 516] .
Given back: 0.0001 to 1 µM

Asked: Please report the recorded IC50 for N#CC[C@H]1CN(c2nc(OCCCN3C[C@@H]4C[C@H]3CO4)nc3c2CCN(c2cccc4cccc(Cl)c24)C3)CCN1C(=O)/C=C/CF [Example 585] .
Given back: 0.0001 to 1 µM

Asked: Please report the recorded IC50 for C=C(F)C(=O)N1CCN(c2nc(OC[C@@H]3CCCN3C)nc3c2CCN(c2cccc4ccccc24)C3)C[C@@H]1CC#N [Example 602] .
Given back: 0.0001 to 1 µM

Asked: Please report the recorded IC50 for C=CC(=O)N1CCN(c2nc(OC[C@@H]3CCCN3C)nc3c2CCN(c2cccc(Cl)c2C(F)(F)F)C3)C[C@@H]1CC#N [Example 428] .
Given back: 0.0001 to 1 µM

Asked: Please report the recorded IC50 for C=CC(=O)N1CCN(c2nc(OC[C@H]3COCCN3C)nc3c2CCN(c2cccc4ccccc24)C3)CC1CC#N (some centres unmarked) [Example 273] .
Given back: > 1 µM

Asked: Please report the recorded IC50 for C=CC(=O)N1CCN(c2nc(OC3CCN(C4CC4)CC3)nc3c2CCN(c2cc(O)cc4ccccc24)C3)CC1 [Example 100] .
Given back: > 1 µM

Asked: Please report the recorded IC50 for C=CC(=O)N1CCN(c2nc(OC[C@@H]3CCCN3C)nc3c2CCN(c2cccc4ccccc24)C3)C[C@@H]1CC#N [Example 234] .
Given back: 0.0001 to 1 µM

Asked: Please report the recorded IC50 for Cc1cccc2cccc(N3CCc4c(nc(OC[C@H]5CCCN5C)nc4N4CCN(C(=O)/C=C/CF)[C@@H](CC#N)C4)C3)c12 [Example 563] .
Given back: 0.0001 to 1 µM

Asked: Please report the recorded IC50 for C=CC(=O)N1CCN(c2nc(OC[C@@H]3CCCCN3C)nc3c2CCN(c2cccc4ccccc24)C3)C[C@@H]1CC#N [Example 377] .
Given back: 0.0001 to 1 µM

Asked: Please report the recorded IC50 for C=CC(=O)N1CCN(c2nc(OC[C@@H]3CCCN3C)nc3c2CCN(c2cccc4ccc(C)cc24)C3)C[C@@H]1CC#N [Example 326] .
Given back: 0.0001 to 1 µM

Asked: Please report the recorded IC50 for C=CC(=O)N1CCN(c2nc(OC[C@@H](O)CN3CCOCC3)nc3c2CCN(c2cc(O)cc4ccccc24)C3)CC1 (single isomer, unassigned) [Example 216] .
Given back: > 1 µM

Asked: Please report the recorded IC50 for C=CC(=O)N1CCN(c2nc(OC[C@H]3CCCN3C)nc3c2CCN(c2cccc4ccccc24)C3)C[C@@H]1CC#N [Example 267] .
Given back: 0.0001 to 1 µM

Asked: Please report the recorded IC50 for C=CC(=O)N1CCN(c2nc(OC[C@@H]3CN(C)CCO3)nc3c2CCN(c2cccc4ccccc24)C3)CC1CC#N (some centres unmarked) [Example 444] .
Given back: 0.0001 to 1 µM

Asked: Please report the recorded IC50 for C=CC(=O)N1CCN(c2nc(OCCCN3CCS(=O)(=O)CC3)nc3c2CCN(c2cc(O)cc4ccccc24)C3)CC1 [Example 34, trifluoroacetate] .
Given back: > 1 µM

Asked: Please report the recorded IC50 for Cc1cccc2cccc(N3CCc4c(nc(OC[C@@H]5CCN(C)C5)nc4N4CCN(C(=O)/C=C/CF)[C@@H](CC#N)C4)C3)c12 [Example 581] .
Given back: 0.0001 to 1 µM

Asked: Please report the recorded IC50 for C=CC(=O)N1CCN(c2nc(OC[C@@H]3CCCN3C)nc3c2CCN(c2cccc(F)c2OC)C3)CC1CC#N (some centres unmarked) [Example 308] .
Given back: 0.0001 to 1 µM

Asked: Please report the recorded IC50 for CN1CCC[C@H]1COc1nc2c(c(N3CCN(C(=O)C#CCO)[C@@H](CC#N)C3)n1)CCN(c1cccc3cccc(Cl)c13)C2 [Example 483] .
Given back: 0.0001 to 1 µM

Asked: Please report the recorded IC50 for C=CC(=O)N1CCN(c2nc(OC[C@@H]3CCCN3C(C)C)nc3c2CCN(c2cccc4ccccc24)C3)C[C@@H]1CC#N [Example 320] .
Given back: 0.0001 to 1 µM

Asked: Please report the recorded IC50 for C=CC(=O)N1CCN(c2nc(OC[C@@H]3CCCN3C)nc3c2CCN(c2nccc4ccccc24)C3)CC1CC#N (some centres unmarked) [Example 289] .
Given back: > 1 µM

Asked: Please report the recorded IC50 for C=CC(=O)N1CCN(c2nc(OCCN(C)CCOC)nc3c2CCN(c2cc(O)cc4ccccc24)C3)CC1 [Example 107] .
Given back: > 1 µM
